- study_target: ~100 representative kinases (Homo sapiens, UniProt P24941)
- Construct: Recombinant protein kinase domains with a concentration of 2 μM
- protocol_text: DSF 100 kinase selectivity screen;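 on dTm: compound tested at 20 µM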
- Format: binding
- assay_context: Protein CDK2; average of three replicates

- compound: "CCSc1nc(NC)c2c(-c3cccc(NC(=O)Nc4cc(C(C)(C)C)nn4-c4ccc(C)cc4)c3)c[nH]c2n1 [Compound 32]"
  dTm, K: 0.83
- compound: "COc1ccc(NC(=O)C2(C(=O)Nc3cccc(-c4c[nH]c5ncnc(N6CCOCC6)c45)c3)CC2)cc1 [Compound 16]"
  dTm, K: 5.86
- compound: "Cc1ccc(-n2nc(C(C)(C)C)cc2NC(=O)Nc2cccc(-c3c[nH]c4ncnc(N5CCOCC5)c34)c2)cc1 [Compound 29]"
  dTm, K: 12.74
- compound: "Cc1ccc(-n2nc(C(C)(C)C)cc2NC(=O)Nc2cccc(-c3c[nH]c4nc(Cl)nc(N5CCOCC5)c34)c2)cc1 [Compound 30]"
  dTm, K: 1.78
- compound: "C[C@@H]1CN(c2cc(-c3n[nH]c4ccc(OC5(C)CC5)cc34)ncn2)C[C@H](C)O1 [MLi2]"
  dTm, K: -0.0213
- compound: "CCc1ccc(NC(=O)C2(C(=O)Nc3cccc(-c4c[nH]c5ncnc(N6CCOCC6)c45)c3)CC2)cc1 [Compound 15]"
  dTm, K: 9.83
- compound: "O=C(Nc1cccc(-c2c[nH]c3ncnc(N4CCOCC4)c23)c1)C1(C(=O)Nc2ccc(F)c(Cl)c2)CC1 [Compound 18]"
  dTm, K: 6.75
- compound: "COc1cc(C(=O)N2CCOCC2)c(F)cc1Nc1nc(N(C)C)c2c(Cl)c[nH]c2n1 [Compound 36]"
  dTm, K: -0.66
- compound: "CC(C)(C)c1cc(NC(=O)Nc2cccc(-c3c[nH]c4ncnc(N5CCOCC5)c34)c2)n(-c2ccc3ncccc3c2)n1 [Compound 28]"
  dTm, K: 14.76
- compound: "O=C(Nc1ccc(F)cc1)C1(C(=O)Nc2cccc(-c3c[nH]c4ncnc(N5CCOCC5)c34)c2)CC1 [Compound 2]"
  dTm, K: 4.78
- compound: "Cc1ccc(C(=O)Nc2ccc(CN3CCN(C)CC3)c(C(F)(F)F)c2)cc1C#Cc1c[nH]c2ncnc(N3CCOCC3)c12 [Compound 1]"
  dTm, K: 3.53
- compound: "O=C(Nc1cccc(-c2c[nH]c3ncnc(N4CCOCC4)c23)c1)C1(C(=O)Nc2ccc(F)cc2F)CC1 [Compound 23]"
  dTm, K: 3.56
- compound: "Cc1cc(NC(=O)C2(C(=O)Nc3cccc(-c4c[nH]c5ncnc(N6CCOCC6)c45)c3)CC2)ccc1F [Compound 20]"
  dTm, K: 8.50
- compound: "CC(C)(C)c1cccc(NC(=O)C2(C(=O)Nc3cccc(-c4c[nH]c5ncnc(N6CCOCC6)c45)c3)CC2)c1 [Compound 22]"
  dTm, K: 5.91

====

- study_target: ~100 representative kinases (Homo sapiens, UniProt Q16566)
- Construct: Recombinant protein kinase domains with a concentration of 2 μM
- Sequence (Q16566 whole entry, the tested form may be a part): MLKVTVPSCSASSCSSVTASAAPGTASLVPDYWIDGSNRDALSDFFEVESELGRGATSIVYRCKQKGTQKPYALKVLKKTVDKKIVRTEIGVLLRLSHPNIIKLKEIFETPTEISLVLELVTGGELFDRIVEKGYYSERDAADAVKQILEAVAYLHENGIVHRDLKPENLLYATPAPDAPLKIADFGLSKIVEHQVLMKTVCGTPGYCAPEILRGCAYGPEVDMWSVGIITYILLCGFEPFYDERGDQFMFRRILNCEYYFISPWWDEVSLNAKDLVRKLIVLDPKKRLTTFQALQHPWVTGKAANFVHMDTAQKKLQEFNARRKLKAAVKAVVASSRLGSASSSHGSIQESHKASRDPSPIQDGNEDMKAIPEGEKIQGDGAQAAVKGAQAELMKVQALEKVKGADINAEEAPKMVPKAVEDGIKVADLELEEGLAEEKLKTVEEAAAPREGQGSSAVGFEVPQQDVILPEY
- protocol_text: DSF 100 kinase selectivity screen;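 on dTm: compound tested at 20 µM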
- Assay type: binding
- assay_context: Protein CAMK4; average of three replicates
The label depends only on dTm: Condition met if it is at least 3 K, Condition not met if it is smaller.

- compound: "CC(C)(C)c1cc(NC(=O)Nc2cccc(-c3c[nH]c4ncnc(N5CCOCC5)c34)c2)n(-c2ccc3ncccc3c2)n1 [Compound 28]"
  label: "Condition met"
- compound: "Cc1cc(NC(=O)C2(C(=O)Nc3ccc(F)cc3)CC2)cc(-c2c[nH]c3ncnc(N4CCOCC4)c23)c1 [Compound 6]"
  label: "Condition not met"
- compound: "O=C(Nc1cccc(-c2c[nH]c3ncnc(N4CCOCC4)c23)c1)C1(C(=O)Nc2ccc(F)cc2F)CC1 [Compound 23]"
  label: "Condition not met"
- compound: "CCNc1nc(Nc2cc(F)c(C(=O)N3CCOCC3)cc2OC)ncc1C(F)(F)F [GNE-7915]"
  label: "Condition not met"
- compound: "O=C(Nc1cccc(-c2c[nH]c3ncnc(N4CCOCC4)c23)c1)C1(C(=O)Nc2ccc(F)c(Br)c2)CC1 [Compound 19]"
  label: "Condition met"
- compound: "O=C(Nc1cccc(-c2c[nH]c3ncnc(N4CCOCC4)c23)c1)C1(C(=O)Nc2ccc(F)c(Cl)c2)CC1 [Compound 18]"
  label: "Condition met"
- compound: "Cc1ccc(NC(=O)C2(C(=O)Nc3cccc(-c4c[nH]c5ncnc(N6CCOCC6)c45)c3)CC2)cc1 [Compound 14]"
  label: "Condition not met"

====

# S(5K) listing for each entry below
- Test system: ~100 representative kinases
- protocol_text: DSF 100 kinase selectivity screen
- Assay type: binding
- assay_context: number of kinases with thermal shift >5 K divided by total number of kinases screened
reported_endpoint: S(5K)

- molecule_smiles: "CCc1ccc(NC(=O)C2(C(=O)Nc3cccc(-c4c[nH]c5ncnc(N6CCOCC6)c45)c3)CC2)cc1"
  reported_endpoint: "S(5K)"
  experimental_result: 0.23
- molecule_smiles: "O=C(Nc1ccc(F)cc1)C1(C(=O)Nc2cccc(-c3c[nH]c4ncnc(N5CCOCC5)c34)c2)CC1"
  reported_endpoint: "S(5K)"
  experimental_result: 0.28
- molecule_smiles: "O=C(Nc1ccccc1)C1(C(=O)Nc2cccc(-c3c[nH]c4ncnc(N5CCOCC5)c34)c2)CC1"
  reported_endpoint: "S(5K)"
  experimental_result: 0.26
- molecule_smiles: "COc1cc(NC(=O)C2(C(=O)Nc3cccc(-c4c[nH]c5ncnc(N6CCOCC6)c45)c3)CC2)ccc1F"
  reported_endpoint: "S(5K)"
  experimental_result: 0.28

====

- study_target: ~100 representative kinases (Homo sapiens, UniProt Q9H2X6)
- Construct: Recombinant protein kinase domains with a concentration of 2 μM
- Sequence (Q9H2X6 whole entry, the tested form may be a part): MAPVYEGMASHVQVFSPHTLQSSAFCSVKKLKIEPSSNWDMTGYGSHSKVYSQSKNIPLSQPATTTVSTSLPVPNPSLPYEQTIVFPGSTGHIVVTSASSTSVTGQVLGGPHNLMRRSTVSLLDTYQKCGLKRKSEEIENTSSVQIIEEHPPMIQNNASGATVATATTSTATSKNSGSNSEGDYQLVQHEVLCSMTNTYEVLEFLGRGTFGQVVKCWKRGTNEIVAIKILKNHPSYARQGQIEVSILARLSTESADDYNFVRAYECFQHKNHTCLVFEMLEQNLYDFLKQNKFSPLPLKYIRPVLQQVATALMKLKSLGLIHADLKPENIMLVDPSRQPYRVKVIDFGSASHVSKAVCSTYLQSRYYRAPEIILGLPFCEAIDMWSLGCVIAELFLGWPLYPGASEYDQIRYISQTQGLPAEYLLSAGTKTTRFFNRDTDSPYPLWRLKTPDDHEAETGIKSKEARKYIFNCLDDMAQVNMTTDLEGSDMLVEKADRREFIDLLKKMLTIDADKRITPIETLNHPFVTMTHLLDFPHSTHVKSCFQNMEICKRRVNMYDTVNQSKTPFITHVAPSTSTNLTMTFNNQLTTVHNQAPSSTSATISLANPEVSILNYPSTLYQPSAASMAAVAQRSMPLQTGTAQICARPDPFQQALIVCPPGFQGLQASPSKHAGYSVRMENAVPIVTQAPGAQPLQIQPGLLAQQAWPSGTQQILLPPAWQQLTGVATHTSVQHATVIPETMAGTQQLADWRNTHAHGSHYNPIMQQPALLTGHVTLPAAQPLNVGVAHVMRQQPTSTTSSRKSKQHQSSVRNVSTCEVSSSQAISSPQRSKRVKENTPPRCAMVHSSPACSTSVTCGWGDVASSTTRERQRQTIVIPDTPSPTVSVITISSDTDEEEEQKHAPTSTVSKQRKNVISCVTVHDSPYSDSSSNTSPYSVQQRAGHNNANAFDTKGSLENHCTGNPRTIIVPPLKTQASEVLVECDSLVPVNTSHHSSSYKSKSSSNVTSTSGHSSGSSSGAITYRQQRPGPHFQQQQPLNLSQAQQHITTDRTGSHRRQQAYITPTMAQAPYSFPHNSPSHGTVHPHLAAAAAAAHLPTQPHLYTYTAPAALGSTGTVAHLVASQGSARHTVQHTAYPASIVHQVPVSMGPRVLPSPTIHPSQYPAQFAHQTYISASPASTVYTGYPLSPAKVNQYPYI
- protocol_text: DSF 100 kinase selectivity screen;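 on dTm: compound tested at 20 µM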
- Type: binding
- assay_context: protein HIPK2; average of three replicates
# dTm listing for each entry below

- molecule_smiles: "CC(C)(C)c1cc(NC(=O)Nc2cccc(-c3c[nH]c4ncnc(N5CCOCC5)c34)c2)n(-c2ccc3ncccc3c2)n1"
  study_target: "~100 representative kinases (Homo sapiens, UniProt Q9H2X6)"
  dTm [K]: 9.47
- molecule_smiles: "O=C(Nc1ccccc1)C1(C(=O)Nc2cccc(-c3c[nH]c4ncnc(N5CCOCC5)c34)c2)CC1"
  study_target: "~100 representative kinases (Homo sapiens, UniProt Q9H2X6)"
  dTm [K]: 7.64
- molecule_smiles: "O=C(Nc1cccc(-c2c[nH]c3ncnc(N4CCOCC4)c23)c1)C1(C(=O)Nc2ccc(F)c(Br)c2F)CC1"
  study_target: "~100 representative kinases (Homo sapiens, UniProt Q9H2X6)"
  dTm [K]: 2.07
- molecule_smiles: "O=C(Nc1ccc(F)cc1)C1(C(=O)Nc2cccc(-c3c[nH]c4ncnc(N5CCOCC5)c34)c2)CC1"
  study_target: "~100 representative kinases (Homo sapiens, UniProt Q9H2X6)"
  dTm [K]: 9.65
- molecule_smiles: "O=C(Nc1cccc(-c2c[nH]c3ncnc(N4CCOCC4)c23)c1)C1(C(=O)Nc2ccc(F)cc2F)CC1"
  study_target: "~100 representative kinases (Homo sapiens, UniProt Q9H2X6)"
  dTm [K]: 6.30
- molecule_smiles: "Cc1ccc(-n2nc(C(C)(C)C)cc2NC(=O)Nc2cccc(-c3c[nH]c4nc(Cl)nc(N5CCOCC5)c34)c2)cc1"
  study_target: "~100 representative kinases (Homo sapiens, UniProt Q9H2X6)"
  dTm [K]: 1.85
- molecule_smiles: "O=C(Nc1cccc(-c2c[nH]c3ncnc(N4CCOCC4)c23)c1)C1(C(=O)Nc2ccc(F)c(F)c2)CC1"
  study_target: "~100 representative kinases (Homo sapiens, UniProt Q9H2X6)"
  dTm [K]: 9.54

====

- study_target: ~100 representative kinases (Homo sapiens, UniProt Q16566)
- Construct: Recombinant protein kinase domains with a concentration of 2 μM
- protocol_text: DSF 100 kinase selectivity screen;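 on dTm: compound tested at 20 µM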
- Assay type: binding
- assay_context: Protein CAMK4; average of three replicates
# dTm listing for each entry below

- compound: "O=C(Nc1cc(F)cc(Br)c1)C1(C(=O)Nc2cccc(-c3c[nH]c4ncnc(N5CCOCC5)c34)c2)CC1 [Compound 27]"
  dTm / K: 0.92
- compound: "Cc1cc(F)ccc1NC(=O)C1(C(=O)Nc2cccc(-c3c[nH]c4ncnc(N5CCOCC5)c34)c2)CC1 [Compound 24]"
  dTm / K: 0.42
- compound: "O=C(Nc1ccc(Cl)cc1)C1(C(=O)Nc2cccc(-c3c[nH]c4ncnc(N5CCOCC5)c34)c2)CC1 [Compound 13]"
  dTm / K: 3.78
- compound: "CNC(=O)c1cc(Oc2ccc(NC(=O)Nc3cc(C(C)(C)C)nn3-c3ccc4ncccc4c3)c(F)c2)ccn1 [Rebastinib, reference compound]"
  dTm / K: 1.22
